Experiment: inhibitors of fungal efflux pumps CDR1, CDR2, MDR1, pilot screen, validation compound set, multiplex, phenotypic (AID 588506);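 also: Nile Red retained in cells so higher fluorescence means more efflux inhibition; 0 = negative control wells and 1 = enniatin B 25 µM full block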
Settings: S. cerevisiae pump-expressing triplex, Nile Red efflux flow cytometry; at 10 µM; stronger effect = higher value; the pumps come from Candida albicans
measure_name: efflux inhibition (fraction of control)
// return a plain number; no unit text

O=c1[nH]c(Cc2ccccc2)nc2c1oc1ccccc12: -0.17
O=C(/C=C/c1ccco1)NCc1ccc2c(c1)OCO2: 0.19
CCc1cccc2c1NC1(CCCC1)CC2C (stereo unspecified): -0.06

Tell me the measured efflux inhibition (fraction of control) of `Cn1c(=O)[nH]c(=O)c2c1ncn2CCN1CCOCC1` , please.
0.08

Tell me the measured efflux inhibition (fraction of control) of `C=C(C)COc1ccc(-c2n[nH]c(C)c2-c2ccc(OC)cc2)c(O)c1` , please.
0.75

Tell me the measured efflux inhibition (fraction of control) of `NS(=O)(=O)c1cc2c(cc1Cl)NC(CSCc1ccccc1)=NS2(=O)=O` , please.
-0.24

Tell me the measured efflux inhibition (fraction of control) of `CC(=O)[C@@]1(O)CC[C@H]2[C@@H]3CCC4=CC(=O)CC[C@]4(C)[C@H]3CC[C@@]21C` , please.
0.27

* * *

Experiment: AGP1-GFP expression modulators, hit retest, confirmation, cell-based, flow cytometry, S. cerevisiae, cherry picks (AID 2273);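 also: median GFP channel fluorescence over the whole cell population gate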
Conditions: S. cerevisiae AGP1-GFP strain, 3 h, at 10 µM
measure_name: GFP response, % of DMSO (%)
Write it as a number; the unit % goes unstated.

Worked cases, answers included:
O=C1Nc2ccccc2C(=O)C1(Cl)Cc1ccccc1 (stereo unspecified): 102
CCOc1cc(/C=C2\N=C(C)OC2=O)cc(Br)c1OCCc1ccccc1: 97.3
O=C(O)c1ccc(N/N=C/C(Br)=C/c2ccccc2)cc1: 94.7
CC1CN(c2nc3ccccn3c(=O)c2/C=C(\C#N)C(=O)N2CCOCC2)CC(C)O1 (stereo unspecified): 95

Tell me the measured GFP response, % of DMSO of `C=CCn1cc(/C=C/c2cc[n+](C)cc2)c2ccccc21` , please.
97.8

Tell me the measured GFP response, % of DMSO of `Cc1ccc(Oc2nc(-c3ccccn3)nc3ccccc23)cc1` , please.
92.2

Tell me the measured GFP response, % of DMSO of `O=C(Cc1ccc(Cl)cc1)Nc1ccc(Br)cn1` , please.
113

Tell me the measured GFP response, % of DMSO of CC(=O)c1ccc(N2CCN(S(=O)(=O)c3ccc4c(c3)CC(C)N4C(C)=O)CC2)cc1 (stereo unspecified) , please.
98.8

* * *

Test: modulators of CIT2-GFP expression in yeast, confirmation, S. cerevisiae, GFP fusion, cherry picks, mother/daughter gates (AID 2274)
Conditions: S. cerevisiae CIT2-GFP strain, flow cytometry, 3 h; measured here: mother cell gate; at 10 µM; stronger effect = higher value
measure_name: GFP response, % of DMSO (%)
Write it as a number; the unit % goes unstated.

Worked cases, answers included:
O=C(c1ccccc1F)N1CCN(c2cccc(C(F)(F)F)c2)CC1: 94.9
O=c1c2ccccc2nc(-c2ccccc2)n1CCN1CCOCC1: 96.8
COC(=O)Cn1cc(/C=C/c2cc[n+](C)cc2)c2ccccc21: 104

Tell me the measured GFP response, % of DMSO of `O=C1c2ccsc2SCCN1Cc1ccc(Cl)cc1` , please.
82.6

Tell me the measured GFP response, % of DMSO of `O=C(Nc1cccc(Cl)c1N1CCCC1)c1ccc([N+](=O)[O-])o1` , please.
91.4

Tell me the measured GFP response, % of DMSO of CC(C(=O)O)n1nc(-c2ccccc2)c2ccccc21 (stereo unspecified) , please.
101

Tell me the measured GFP response, % of DMSO of CC(C)C(=O)NC(c1cccs1)c1cc([N+](=O)[O-])c2cccnc2c1O (stereo unspecified) , please.
99.3

* * *

GFP response relative to DMSO values, listed per item
Test: LAP4-GFP expression modulators in yeast, confirmation, cell-based, cherry picks, flow cytometry, mother/daughter gates (AID 2271);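 also: ratio of sample to DMSO plate mean so 100% equals DMSO level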
Conditions: S. cerevisiae LAP4-GFP strain, 3 h, measured here: daughter cell gate response, at 10 µM, stronger effect = higher value, 100 means same as DMSO control
Write it as a number; the unit % goes unstated.

Worked cases, answers included:
COc1cc(/C=N/Nc2nc(C)cc(=O)[nH]2)ccc1O: 89.3
CCCCC1OC23CCCCC2C(C#N)(C(=N)O3)C1(C#N)C#N (stereo not drawn): 117
Cc1cc(N)n2ncc(-c3ccccc3)c2n1: 102
Fc1ccccc1-c1nc(NCCCN2CCOCC2)c2ccccc2n1: 99.2
Cc1ccc(C(=O)Oc2oc(-c3ccccc3)nc2C=Nc2ccc(N(C)C)cc2)cc1: 98.2

Tell me the measured GFP response relative to DMSO of CCOC(=O)C1CCCN(C(=O)c2ccc(-c3ccc([N+](=O)[O-])cc3)o2)C1 (stereo not drawn) , please.
101

Tell me the measured GFP response relative to DMSO of `COC(=O)Cc1ccc(OCc2ccc(Cl)nc2)cc1` , please.
107

* * *

differentiation response values, listed per item
Experiment: promoters of myeloid differentiation in arrested cells, primary screen, cell-based, GFP/MAC1 double positive, flow cytometry, validation set (AID 588685);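 also: compound exposure lasts four days before antibody staining and flow analysis; 0% = DMSO wells and 100% = 5 µM fulvestrant positive control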
Settings: ER-HoxA9 marrow cells, stronger effect = higher value, normalized: vehicle 0, fulvestrant 100
Write it as a number; the unit % goes unstated.

Cn1nc(-c2ccccn2)nc2c(=O)n(C)c(=O)nc1-2: -22.8
O=C(O)CCSc1nc2ccccc2s1: 17.6
CCc1cccc2c1NC1(CCCC1)CC2C (stereo not given): 10.4
O=P(c1ccccc1)(c1ccccc1)c1nc(-c2ccc(Cl)cc2)oc1N1CCOCC1: -3.11
CCNC(=O)c1sc2cc(C)ccc2c1Cl: 1.41

Consider the record given below.
Tell me the measured differentiation response of `Nc1ccc2[nH]ncc2c1` , please.
87.2

* * *

GFP response vs DMSO values, listed per item
Assay: modulators of MEP2-GFP levels in yeast, confirmation, S. cerevisiae, flow cytometry GFP, cherry picks (AID 2272);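 also: ratio of well signal to plate DMSO mean so 100% equals DMSO level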
Details: S. cerevisiae MEP2-GFP strain, 3 h, at 10 µM, stronger effect = higher value
Write it as a number; the unit % goes unstated.

Worked cases, answers included:
Cc1cc(N)ccc1NC(=O)c1ccccc1: 105
COCCN(CCOC)S(=O)(=O)c1ccc(C(=O)Nc2nnc(C)o2)cc1: 99

Tell me the measured GFP response vs DMSO of `CCc1nn2c(N3CCOCC3)cc(C)nc2c1-c1ccc(F)cc1` , please.
106

Tell me the measured GFP response vs DMSO of `COc1cc(/C=C/C(=O)c2c(O)ccc3c(C)cc(=O)oc23)ccc1O` , please.
98.3

Tell me the measured GFP response vs DMSO of CN1CCN(C(=O)CC2C(=O)NCCN2Cc2ccc(-c3ccccc3)cc2)CC1 (stereo unspecified) , please.
97.5

* * *

Experiment: yeast V-ATPase proton transport modulators, S. cerevisiae, pHLuorin, HTS validation (AID 504600);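 also: plate controls were DMSO for no effect and reference compound for full effect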
Details: S. cerevisiae pHLuorin cytosolic pH, at 10 µM, stronger effect = higher value
response values, listed per item
Write it as a number; the unit % goes unstated.

Worked cases, answers included:
CCCCC[C@H](O)/C=C/[C@@H]1[C@@H](C/C=C\CCCC(=O)OC)[C@@H](O)C[C@H]1O: -0.57
CCCCC(=O)O[C@]1(C(=O)CO)CC[C@H]2[C@@H]3CCC4=CC(=O)CC[C@]4(C)[C@H]3[C@@H](O)C[C@@]21C: -1.11
COCc1cc(=O)[nH]c(Nc2nc3ccccc3o2)n1: 6.3

Tell me the measured response of CC1(C)CC(=O)C(C2(O)C(=O)Nc3ccccc32)CO1 (stereo unspecified) , please.
2.36

Tell me the measured response of `COc1ccccc1-c1c(C(F)(F)F)oc2cc(OC(=O)c3ccc([N+](=O)[O-])cc3)ccc2c1=O` , please.
1.11

Tell me the measured response of C[C@H](NC(=O)OC(C)(C)C)C(=O)NCC1CCC(C(=O)O)CC1 (stereo partly specified) , please.
1.21

Tell me the measured response of CC(=O)N1CC23C=CC(CC2CC12CCCCCC2)O3 (stereo unspecified) , please.
-29.7

Tell me the measured response of Cc1ccc(C(CC(=O)NCc2ccco2)c2ccc(OC(C)C)cc2)cc1 (stereo unspecified) , please.
-2.51

Tell me the measured response of CSc1ccc2c(c1)N(CCC1CCCCN1C)c1ccccc1S2 (stereo unspecified) , please.
-0.24

Tell me the measured response of `CC1(C)O[C@@H]2C[C@H]3[C@@H]4CCC5=CC(=O)C=C[C@]5(C)[C@@]4(F)[C@@H](O)C[C@]3(C)[C@]2(C(=O)CO)O1` , please.
-1.77

Tell me the measured response of `COc1ccc(N2C(=O)[C@@H]3Cc4ccccc4CN3C2=O)cc1` , please.
-2.4

Tell me the measured response of `CC(=O)O[C@]1(C(C)=O)CC[C@H]2[C@@H]3C=C(Cl)C4=CC(=O)CC[C@]4(C)[C@H]3CC[C@@]21C` , please.
-0.6

Tell me the measured response of `CCOc1ccccc1Oc1coc2cc(OCC(=O)O)ccc2c1=O` , please.
5.03

Tell me the measured response of `CCOc1cc(C)cc2oc(=O)cc(-c3ccccc3)c12` , please.
8.03
